Origin of the recorded values: PubChem BioAssay (NCI)

# Tested on: 786-0 renal
# Method: NCI-60 one-dose screen, 48 h (100 = growth as untreated, 0 = no growth, -100 = all killed)
# Measurement Setup: 10 µM unless noted
Compounds without any hit were thinned out: in the full panel of roughly 83,000, 20% have a hit.
// growth lookup, one value per entry
Endpoint Name: growth (%)

[
  {
    "Compound": "O=C1c2cccc3cccc(c23)C(=O)N1CCCCCN1CCN(CCCCCOc2ccc(-c3nc4ccc(N5CCOCC5)cc4[nH]3)cc2)CC1",
    "Endpoint Name": "growth",
    "Numeric Value": 109
  },
  {
    "Compound": "CCNc1ncnc2c1cnn2C1CCCO1 (stereo unspecified)",
    "Endpoint Name": "growth",
    "Numeric Value": 109
  },
  {
    "Compound": "O=C(COc1ccc(/C=C2\\COc3ccccc3C2=O)cc1)Nc1nccs1",
    "Endpoint Name": "growth",
    "Numeric Value": 89.3
  },
  {
    "Compound": "Cn1ccnc1C(=O)/C=C/c1ccccc1",
    "Endpoint Name": "growth",
    "Numeric Value": -35.6
  },
  {
    "Compound": "COc1cccc(-c2nc3sccn3c2-c2ccnc(NCCCNS(=O)(=O)c3c(Cl)cccc3Cl)c2)c1",
    "Endpoint Name": "growth",
    "Numeric Value": 70.4
  },
  {
    "Compound": "COc1cc2c(cc1-c1c(C)noc1C)ncc1nc(-c3ccccn3)n([C@H](C)COC(F)F)c12",
    "Endpoint Name": "growth",
    "Numeric Value": 50.4
  },
  {
    "Compound": "COc1ccc(O)c(N=Nc2nccs2)c1",
    "Endpoint Name": "growth",
    "Numeric Value": 70.6
  },
  {
    "Compound": "COCCNc1ccc2c3c(cccc13)C(=O)N(CCN(C)C)C2=O",
    "Endpoint Name": "growth",
    "Numeric Value": 32.1
  },
  {
    "Compound": "O=C1CSC(=S)N1CCc1ccc(O)cc1",
    "Endpoint Name": "growth",
    "Numeric Value": 40
  },
  {
    "Compound": "CC(O)CN1CC(O)=C(c2nc3ccccc3s2)C1=N (stereo unspecified)",
    "Endpoint Name": "growth",
    "Numeric Value": 100
  },
  {
    "Compound": "O=C1OCC2=C1C(c1ccncc1)c1cc3c(cc1N2CCO)OCO3 (stereo unspecified)",
    "Endpoint Name": "growth",
    "Numeric Value": 112
  }
]

====

# Test system: OVCAR-5 ovarian
# Method: NCI-60 one-dose screen, 48 h
# Measurement Setup: 10 µM unless noted
The panel holds about 83,000 compounds, 20% with a hit somewhere; the sample as a whole holds those more often. Calls of active or inactive are those of the source. Rule for the calls: active = growth percent below 10; inactive = the rest.
Possible outcomes: active, inactive

[
  {
    "Molecule": "OC(c1cc2cc(Cl)c(Cl)cc2c2cc(C(F)(F)F)ccc12)C1CCCCN1 (centres undefined)",
    "Tested Target": "OVCAR-5 ovarian",
    "Discrete Label": "active"
  },
  {
    "Molecule": "O=C1/C(=C/c2ccc(Cl)cc2)SC(=S)N1CCc1ccc(O)cc1",
    "Tested Target": "OVCAR-5 ovarian",
    "Discrete Label": "inactive"
  },
  {
    "Molecule": "Cc1ccc2c(C(C[N+](=O)[O-])c3ccco3)c(-c3ccccc3)[nH]c2c1 (centres undefined)",
    "Tested Target": "OVCAR-5 ovarian",
    "Discrete Label": "inactive"
  },
  {
    "Molecule": "COc1ccc(/C=C\\c2cc(OC)c(OC)c(OC)c2)cc1OC(=O)c1cccc(Cn2cc(CCOC(=O)[C@H](N)Cc3cn(C)c4ccccc34)nn2)c1",
    "Tested Target": "OVCAR-5 ovarian",
    "Discrete Label": "inactive"
  },
  {
    "Molecule": "Nc1ccc(S(=O)(=O)O)c2ccc(N=Nc3ccc(N=Nc4ccc(S(=O)(=O)O)cc4)c4ccccc34)c(O)c12",
    "Tested Target": "OVCAR-5 ovarian",
    "Discrete Label": "inactive"
  },
  {
    "Molecule": "COc1ccc(-c2cc(=O)c3c(OC)c4ccoc4cc3o2)cc1",
    "Tested Target": "OVCAR-5 ovarian",
    "Discrete Label": "inactive"
  },
  {
    "Molecule": "Cc1nc(/N=C(\\N)NC(=O)Nc2cccc([N+](=O)[O-])c2)sc1C",
    "Tested Target": "OVCAR-5 ovarian",
    "Discrete Label": "inactive"
  },
  {
    "Molecule": "COc1ccc2c(c1)c(-c1nonc1-c1cn(C)c3ccccc13)cn2C",
    "Tested Target": "OVCAR-5 ovarian",
    "Discrete Label": "inactive"
  },
  {
    "Molecule": "Oc1cccc2ccc(N/N=C/c3cc(CN4CCOCC4)c(O)c4ncccc34)nc12",
    "Tested Target": "OVCAR-5 ovarian",
    "Discrete Label": "inactive"
  }
]

====

# Tested on: HCC-2998 colon
# Method: NCI-60 one-dose screen, 48 h
# Measurement Setup: 10 µM unless noted
This is part of a sample that, as a whole, favours compounds with a hit. Of some 83,000 tested, about 20% had one in any assay. Activity calls are given as the source filed them. Rule for the calls: active = growth percent below 10; inactive = the rest.
Outcomes: active, inactive

[
  {
    "Smiles Record": "COc1ccc(-c2nc3cc(C(=O)Nc4cc(OC)c(OC)c(OC)c4)ccc3n2C2CCCCC2)cc1",
    "Discrete Label": "inactive"
  },
  {
    "Smiles Record": "Cn1ccnc1C(=O)/C=C/c1ccc(CC(=O)Nc2ccccc2)cc1",
    "Discrete Label": "inactive"
  },
  {
    "Smiles Record": "CCCCCCN(CCCCCC)C(=N)c1ccnc2ccccc12",
    "Discrete Label": "active"
  },
  {
    "Smiles Record": "CN(C)c1ccc(NC(=O)c2ccc(/C=C/C(=O)c3ncc[nH]3)cc2)cc1",
    "Discrete Label": "inactive"
  },
  {
    "Smiles Record": "CS(=O)(=O)c1ccc(-n2nc(-c3ccc(Br)cc3)c3ccccc3c2=O)cc1",
    "Discrete Label": "inactive"
  }
]

====

# Test system: SR leukemia
# Method: NCI-60 one-dose screen, 48 h
# Measurement Setup: 10 µM unless noted
Compounds without any hit were thinned out: in the full panel of roughly 83,000, 20% have a hit. Active and inactive are the calls of the source. The calls were made as follows: active = growth percent below 10; inactive = the rest.
Classes used: T (active), F (inactive)

[
  {
    "Molecule": "Cc1ccc(-c2onc3c(=O)[nH]nc(-c4ccccc4)c23)cc1",
    "Discrete Label": "F"
  },
  {
    "Molecule": "COC(=O)c1ccc(Cn2cnc3c(N)ncnc32)cc1",
    "Discrete Label": "F"
  },
  {
    "Molecule": "COc1ccccc1Nc1nc(-c2cc3cccc(C(F)(F)F)c3oc2=O)cs1",
    "Discrete Label": "F"
  },
  {
    "Molecule": "CCCCn1cnc2c(Sc3c([N+](=O)[O-])ncn3C)nc(N)nc21",
    "Discrete Label": "F"
  },
  {
    "Molecule": "C=C1C(=O)O[C@H]2[C@H]1CC/C(COC(=O)NCc1ccc(OC)c(OC)c1)=C\\CC[C@@]1(C)O[C@@H]21",
    "Discrete Label": "T"
  },
  {
    "Molecule": "CCOc1ccc(C(C)=O)cc1NC(=O)c1cccc(-c2nnn(CC)n2)c1",
    "Discrete Label": "F"
  },
  {
    "Molecule": "O=c1cc(CSc2nnc(-c3ccc(F)cc3)o2)c2ccc3ccccc3c2o1",
    "Discrete Label": "F"
  },
  {
    "Molecule": "COc1ccc(/C=C/C(=O)c2cc(O)ccc2O)cc1",
    "Discrete Label": "F"
  },
  {
    "Molecule": "O=C(COc1cccc(/C=C2\\CSc3ccccc3C2=O)c1)Nc1nccs1",
    "Discrete Label": "T"
  },
  {
    "Molecule": "COc1ccc2c(c1)CC/C(=C\\c1cncc(Br)c1)C2=O",
    "Discrete Label": "F"
  },
  {
    "Molecule": "CC(C)C[C@@H](NC(=O)[C@@H](Cc1ccccc1)NC(=O)c1cnccn1)B1Oc2ccc(C[C@H](NC(=O)[C@H](Cc3ccc4c(c3)OB([C@@H](CC(C)C)NC(=O)[C@@H](Cc3ccccc3)NC(=O)c3cnccn3)O4)NC(=O)[C@@H](N)CC3CCC4OB([C@@H](CC(C)C)NC(=O)[C@@H](CC5CCCCC5)NC(=O)C5CNCCN5)OC4C3)C(=O)NCCCC[C@@H]3NC(=O)[C@@H](Cc4ccccc4)NC(=O)[C@H](CC(=O)O)NC(=O)CNC(=O)[C@H](CCCNC(=N)N)NC3=O)cc2O1 (some centres undefined)",
    "Discrete Label": "T"
  },
  {
    "Molecule": "O=C1c2cc3c(cc2-c2c1c1ccc(F)cc1c(=O)n2CCCNCCO)OCO3",
    "Discrete Label": "T"
  },
  {
    "Molecule": "COc1ccc(NC(=O)c2ccc(/C=C/C(=O)c3ncc[nH]3)cc2)cc1",
    "Discrete Label": "F"
  },
  {
    "Molecule": "CN(C)C(=S)N=Nc1c(O)[nH]c2ccccc12",
    "Discrete Label": "T"
  },
  {
    "Molecule": "CCCn1c(=O)[nH]c(N)c([C@H]2c3ccccc3Oc3[nH]c(=O)n(CCC)c(=O)c32)c1=O",
    "Discrete Label": "T"
  },
  {
    "Molecule": "C#CCOc1ccc2ncnc(NCc3cccc(NC(=O)CCl)c3)c2c1",
    "Discrete Label": "F"
  },
  {
    "Molecule": "COc1ccc(N=Nc2nccs2)c(O)c1",
    "Discrete Label": "F"
  },
  {
    "Molecule": "CC(C)(C)c1cc(C(C)(C)C)cc(S(=O)(=O)Nc2cc3ccccc3cc2C(=O)NCCN)c1",
    "Discrete Label": "T"
  },
  {
    "Molecule": "Oc1cccc(-c2nc(N3CCOCC3)c3c4c(sc3n2)CCCC4)c1",
    "Discrete Label": "F"
  },
  {
    "Molecule": "c1ccc(CCNc2ncnc3[nH]ncc23)cc1",
    "Discrete Label": "F"
  },
  {
    "Molecule": "N#Cc1nnn(-c2ccc(S(N)(=O)=O)cc2)c1NCC(=O)c1ccccc1",
    "Discrete Label": "F"
  },
  {
    "Molecule": "O=C1c2ccccc2OC=C(c2ccccc2)N1CCCCNc1ccc(S(=O)(=O)Nc2ncccn2)cc1",
    "Discrete Label": "F"
  },
  {
    "Molecule": "CN1CCN(c2ccc(Nc3c4ccccc4nc4ccccc34)cc2)CC1",
    "Discrete Label": "F"
  },
  {
    "Molecule": "CN1CCN(c2nc(NCCCCNc3ccnc4cc(Cl)ccc34)c3ccccc3n2)CC1",
    "Discrete Label": "T"
  },
  {
    "Molecule": "CC1CCNC(C)C1 (centres undefined)",
    "Discrete Label": "F"
  },
  {
    "Molecule": "COc1ccc(-c2cc(Nc3ccnc(N4CCOCC4)n3)on2)cc1",
    "Discrete Label": "F"
  },
  {
    "Molecule": "Cc1cc(N2CCCCCC2)nc(NC2CCCC(Nc3ccnc4cc(Cl)ccc34)C2)n1 (centres undefined)",
    "Discrete Label": "T"
  },
  {
    "Molecule": "Oc1cccc2ccc(N/N=C/c3cc(CN4CCOCC4)c(O)c4ncccc34)nc12",
    "Discrete Label": "T"
  },
  {
    "Molecule": "CC(=O)c1cc2c(N)c(C(=O)Nc3cccc(F)c3C)sc2nc1C",
    "Discrete Label": "F"
  },
  {
    "Molecule": "OC(c1cc2cc(Cl)c(Cl)cc2c2cc(C(F)(F)F)ccc12)C1CCCCN1 (centres undefined)",
    "Discrete Label": "T"
  },
  {
    "Molecule": "Cc1cc(N2CCN(C)CC2)nc(NC2CCCC(Nc3ccnc4cc(Cl)ccc34)C2)n1 (centres undefined)",
    "Discrete Label": "T"
  },
  {
    "Molecule": "COc1ccc(CN2c3ccccc3Sc3ccccc32)cc1O",
    "Discrete Label": "F"
  },
  {
    "Molecule": "COc1cc(-c2nn(C)nc2-c2cc3ccccc3s2)cc(OC)c1OC",
    "Discrete Label": "F"
  },
  {
    "Molecule": "CCC([N+](=O)[O-])S(=O)(=O)c1ccc(C)cc1 (centres undefined)",
    "Discrete Label": "F"
  },
  {
    "Molecule": "CC(C)(C)CC(C)(C)c1ccc(OCCOCC[N+](C)(C)Cc2ccccc2)cc1",
    "Discrete Label": "T"
  },
  {
    "Molecule": "Cc1cc(Nc2ccc(C)c(Cl)c2)n2nc(C(F)(F)F)nc2n1",
    "Discrete Label": "F"
  },
  {
    "Molecule": "Cc1ccccc1COc1ccc(-c2onc(C)c2-c2ccc(Cl)cc2)cc1",
    "Discrete Label": "F"
  },
  {
    "Molecule": "C=C1C(=O)O[C@H]2[C@H]1CC/C(C=Nc1ccc(C(F)(F)F)cc1N)=C\\CC[C@@]1(C)O[C@@H]21",
    "Discrete Label": "T"
  },
  {
    "Molecule": "NC(=O)c1cc(Br)ccc1NC(=O)/C=C/c1ccccc1",
    "Discrete Label": "T"
  }
]
